tested on: RPMI-8226 leukemia; test: NCI-60 one-dose screen, 48 h; conditions: 10 µM unless noted
About 83,000 compounds went through this panel and 20% of them were active in at least one assay; those are over-represented in the sample as a whole. Activity calls are given as the source filed them. How the source made its calls: active means growth percent below 10; inactive means the rest.
# valid calls are 1 = active, 0 = inactive; nothing else

Would you please look over these solved cases?
Query: # lookup: test call for COc1ccccc1/C=C/C1=C(C)CCC(c2ccccc2OC)C1C (centres undefined)
Response: 1

Query: # lookup: test call for O=c1cc(-c2nccc3c2[nH]c2ccccc23)c2cc(Cl)ccc2o1
Response: 0

Query: # lookup: test call for CNC1=C([N+](=O)[O-])C(c2ccc(OC)cc2)C(C#N)=C(c2ccc[nH]2)O1 (centres undefined)
Response: 0

Query: # lookup: test call for CCOC(=O)CC1CSC(N/N=C(/C)c2cccc(C(F)(F)F)c2)=N1 (centres undefined)
Response: 0

Query: # lookup: test call for CCOC(=O)c1c(NC(=S)Nc2ccc([N+](=O)[O-])cc2)sc2c1CCCCC2
Response: 0

***
Query: # lookup: test call for COc1ccc2c(c1)c(-c1nc(-c3cn(C)c4ccncc34)cs1)cn2C
Response: 1

Query: # lookup: test call for C#CCOc1ccc(C2=NN(CCCC)C3N=C(Cl)c4ncn(CCCC)c4N23)cc1OCC#C (centres undefined)
Response: 0

Query: # lookup: test call for CCc1ccc(Cc2cnc(NC(=O)c3cc(C)oc3C)s2)cc1
Response: 0

Query: # lookup: test call for C=C(C)[C@@H]1CCC[C@]2(C(=O)OC)CC[C@]3(C)[C@@H](CC[C@@H]4[C@@]5(C)CCCNC(C)(C)[C@@H]5CC[C@]43C)[C@@H]12
Response: 0

###

tested on: HOP-92 NSCLC; test: NCI-60 one-dose screen, 48 h; settings: 10 µM unless noted
About 83,000 compounds went through this panel and 20% of them were active in at least one assay; those are over-represented in the sample as a whole. Active and inactive are the calls of the source. How the source made its calls: active means growth percent below 10; inactive means the rest.
# valid calls are y = active, n = inactive; nothing else

Would you please look over these solved cases?
Query: # lookup: test call for FC(F)(F)c1cccc(-c2nnn(Cc3cc(-c4cccc(Cl)c4)no3)n2)c1
Response: n

Query: # lookup: test call for O=C1/C(=C/c2cccc(Br)c2)COc2ccc(O)c(O)c21
Response: y

// switching to the query compound
Query: # lookup: test call for CN(C)C(=S)NN=C(c1ccccn1)c1ccccn1
Response: n

###

test system: A498 renal; assay: NCI-60 one-dose screen, 48 h (100 = growth as untreated, 0 = no growth, -100 = all killed); conditions: 10 µM unless noted
This is part of a sample that, as a whole, favours compounds with a hit. Of some 83,000 tested, about 20% had one in any assay.
Labels assigned by growth range: Low = under 20%, Mid = from 20% up to 90%, High = 90% and over

Would you please look over these solved cases?
Query: The entry to classify is COC(=O)CCc1c(/C=C2\N=C(c3ccc[nH]3)C=C2OC)[nH]c(C)c1C(=O)OCc1ccccc1 ; which class holds it?
Response: Low

Query: The entry to classify is O=C(NC1CCCCCC1)c1ccc2c(=O)n3c(nc2c1)CCCCC3 ; which class holds it?
Response: High

Query: The entry to classify is Cc1c2ccncc2c(C)c2c1c1ccccc1n2CCCCCC(=O)O ; which class holds it?
Response: Mid

Query: The entry to classify is CCNCCNc1c(C)c(-c2ccc(C(F)(F)F)cc2)c(C#N)c2nc3ccccc3n12 ; which class holds it?
Response: Mid

Query: The entry to classify is C=C(c1ccc(OC)c(/C=C/C(=O)c2cc(OC)c(OC)c(OC)c2)c1)c1cc(OC)c(OC)c(OC)c1 ; which class holds it?
Response: Low

Query: The entry to classify is O=C(OCC(O)C(=O)NC12CC3CC(CC(C3)C1)C2)c1cccc(Br)c1 (centres undefined) ; which class holds it?
Response: High

// switching to the query compound
Query: The entry to classify is O=c1c(/C=C/c2c(O)ccc3ccccc23)nnc2sc(-c3cccc([N+](=O)[O-])c3)nn12 ; which class holds it?
Response: Mid

###

system: RXF 393 renal; assay: NCI-60 one-dose screen, 48 h (100 = growth as untreated, 0 = no growth, -100 = all killed); conditions: 10 µM unless noted
Compounds without any hit were thinned out: in the full panel of roughly 83,000, 20% have a hit.
Field: label. Allowed values: 1 (yes) (growth < 50%) or 0 (no) (growth >= 50%).

Would you please look over these solved cases?
Query: Say whether its growth is strictly beneath 50%. Entry: CSc1nn2c(-c3cc4cc(Br)ccc4oc3=O)ccnc2c1C#N
Response: 0 (no)

Query: Say whether its growth is strictly beneath 50%. Entry: Cc1c2cnccc2c(C)c2c1c1cc(C(=O)O)ccc1n2C
Response: 1 (yes)

Query: Say whether its growth is strictly beneath 50%. Entry: Cc1ccc2c(c1)CC(O)CC1C(=O)N(CCO)CC(=O)N21 (centres undefined)
Response: 0 (no)

Query: Say whether its growth is strictly beneath 50%. Entry: CN(C)c1ccc(/C=N/NC(=O)CSc2nc3sc4c(c3c(=O)n2-c2ccccc2)CCCCC4)cc1
Response: 1 (yes)

Query: Say whether its growth is strictly beneath 50%. Entry: Cc1ccc(Nc2nc(N)nc(N)c2N=O)cc1Cl
Response: 0 (no)

Query: Say whether its growth is strictly beneath 50%. Entry: COc1nc2ccccc2cc1/C=C1/C=C(c2ccccc2)NC1=O
Response: 1 (yes)

Query: Say whether its growth is strictly beneath 50%. Entry: Cn1cc(-c2csc(-c3cn(C)c4ccc(F)cc34)n2)c2cnccc21
Response: 1 (yes)

Query: Say whether its growth is strictly beneath 50%. Entry: C=C(CNCCc1ccc(O)cc1)[C@@H]1CC[C@]2(CO)CC[C@]3(C)[C@H](CC[C@@H]4[C@@]5(C)CCC(N)C(C)(C)[C@@H]5CC[C@]43C)[C@@H]12 (some centres undefined)
Response: 1 (yes)

***
Query: Say whether its growth is strictly beneath 50%. Entry: CC1=C2[C@@H](CC1)[C@]1(C)O[C@@](C(C)C)(C[C@H]1OC(=O)CO)[C@H]2OC(=O)CCCc1ccccc1
Response: 0 (no)

###

test system: UACC-62 melanoma; assay: NCI-60 one-dose screen, 48 h; conditions: 10 µM unless noted
This is part of a sample that, as a whole, favours compounds with a hit. Of some 83,000 tested, about 20% had one in any assay. Active and inactive are the calls of the source. The calls were made as follows: active = growth percent below 10; inactive = the rest.
# valid calls are Y (active), N (inactive); nothing else

Would you please look over these solved cases?
Query: # lookup: test call for NC(=N\N=C/c1ccc(Cl)cc1Cl)/C(N)=N\N=C/c1ccc(Cl)cc1Cl
Response: N

Query: # lookup: test call for O=c1[nH]c(CN2CCN(c3ccccc3)CC2)nc2c(Br)cc(Br)cc12
Response: N

Query: # lookup: test call for CCCNNC(=O)c1ccc(CNC(=O)/C=C/c2ccccc2)cc1
Response: Y

Query: # lookup: test call for CCN(CC)CCCC(Nc1c2ccc(Cl)cc2nc2ccc(OC)cc12)c1ccncc1 (stereo not given)
Response: N

// switching to the query compound
Query: # lookup: test call for Cc1nc2ccccc2c(/C=C/c2ccc(Br)cc2)c1C(=O)/C=C/c1ccccc1
Response: Y

###

tested on: SN12C renal; test: NCI-60 one-dose screen, 48 h (100 = growth as untreated, 0 = no growth, -100 = all killed); settings: 10 µM unless noted
About 83,000 compounds went through this panel and 20% of them were active in at least one assay; those are over-represented in the sample as a whole.
Respond with y for growth values of 90% and above, n for values below.

Query: Kindly determine if growth recorded for CC(C)n1cc(C2=C(c3cccc4ccccc34)C(=O)NC2=O)c2cc(Br)ccc21 is above or exactly 90%.
Response: n

Query: Kindly determine if growth recorded for Cc1nn(-c2ccccc2)c(Oc2ccccc2)c1/C=N/NC(=O)Cn1c(=O)sc2ccccc21 is above or exactly 90%.
Response: n

Query: Kindly determine if growth recorded for O=c1ccc2c(ccc3ncccc32)o1 is above or exactly 90%.
Response: y

Query: Kindly determine if growth recorded for Cc1cc([N+](=O)[O-])ccc1NC(=O)c1ccc2c(c1)nc(-c1ccccc1)n2C1CCCCC1 is above or exactly 90%.
Response: y

Query: Kindly determine if growth recorded for COc1ccc(S(=O)(=O)NC2c3ccccc3CC2O)cc1OC (stereo not given) is above or exactly 90%.
Response: y

// switching to the query compound
Query: Kindly determine if growth recorded for C=C(C)Cn1c(SCC(=O)c2cccs2)nc2sc3c(c2c1=O)CCCC3 is above or exactly 90%.
Response: n

###

system: OVCAR-3 ovarian; assay: NCI-60 one-dose screen, 48 h; conditions: 10 µM unless noted
The panel holds about 83,000 compounds, 20% with a hit somewhere; the sample as a whole holds those more often. The source made the active and inactive calls. How the source made its calls: active means growth percent below 10; inactive means the rest.
# valid calls are Y = active, N = inactive; nothing else

Query: # lookup: test call for CCN1C(=O)N(CC)C2C1NN=c1s/c(=C\c3ccccc3)c(=O)n12 (stereo not given)
Response: Y

Query: # lookup: test call for COc1cccc2cc(N(C)c3ncnc4ccccc34)ccc12
Response: Y

Query: # lookup: test call for C=CCn1c(SCC(=O)Nc2ccc(C(=O)/C=C/c3ccc(Cl)cc3)cc2)nnc1-c1ccc(Cl)c(Cl)c1
Response: N

***
Query: # lookup: test call for CCOC(=O)CSc1nc2sc3c(c2c(=O)n1-c1ccccc1)CCCCC3
Response: N

Query: # lookup: test call for COc1cc(CNC(=O)CCCC/C=C/C(C)C)ccc1OCc1cn(-c2cccc([N+](=O)[O-])c2)nn1
Response: N

Query: # lookup: test call for C#CCOc1cccc(Nc2ncnc3c(NC(=O)CCl)cccc23)c1
Response: Y

Query: # lookup: test call for CCNCCNc1c(C)c(-c2ccc(C(F)(F)F)cc2)c(C#N)c2nc3ccccc3n12
Response: N

Query: # lookup: test call for O=C1NCCS(=O)(=O)/C1=C\C=C\c1cccc(C(F)(F)F)c1
Response: N

Query: # lookup: test call for CC1=C(C(=O)OCc2ccccc2)C(c2ccc3c(c2)OCO3)n2c(nc3ccccc32)N1 (stereo not given)
Response: N

Query: # lookup: test call for CC(=O)c1ccc(Nc2nccc(-c3ccc(Cl)cc3)n2)cc1
Response: N

Query: # lookup: test call for Cc1ccc(OCCOCCOCCOCCOc2ccc(C)n(O)c2=S)c(=S)n1O
Response: N

Query: # lookup: test call for CN1CCN(CC(=O)N(C)c2ccc(N=C(c3ccccc3)c3c(O)[nH]c4ccc([N+](=O)[O-])cc34)cc2)CC1
Response: N

Query: # lookup: test call for Cc1nc2ccccc2c(/C=C/c2ccc(Br)cc2)c1C(=O)/C=C/c1ccccc1
Response: Y

Query: # lookup: test call for Clc1ccc(C2=Nn3c(nnc3-c3cc(Cl)cc(Cl)c3Cl)SC2)cc1
Response: Y

Query: # lookup: test call for COc1ccc(C(c2cc(OC)c(OC)c(OC)c2)n2cncn2)cc1O (stereo not given)
Response: Y

Query: # lookup: test call for CC/C(=C(/c1ccc(Cl)cc1)c1ccc(OCCN2CCCC2)cc1)c1ccccc1
Response: N

Query: # lookup: test call for COc1cc2c(c(OC)c1OC)CCC(c1cccc(NC(=O)c3cccc(Cl)c3)c1)O2 (stereo not given)
Response: N

Query: # lookup: test call for Cc1cc([N+](=O)[O-])ccc1NC(=O)c1ccc2c(c1)nc(-c1ccccc1)n2C1CCCCC1
Response: N

Query: # lookup: test call for CC1=C2[C@@H](CC1)[C@]1(C)O[C@@](C(C)C)(C[C@H]1OC(=O)CO)[C@H]2OC(=O)CCCc1ccccc1
Response: N

Query: # lookup: test call for COc1nc2ccccc2cc1/C=C1/C=C(c2ccccc2)NC1=O
Response: N
